Recorded values, source PubChem BioAssay.

Listing of recorded composite z-score by entry.
Test system: Lefty1
Experiment: Lefty1 binders on small-molecule microarrays, primary screen, biochemical, small-molecule microarray, 635/667 nm fluorescence (AID 1139)
Details: small-molecule microarray binding, fluorescence 635/667; higher = more signal

>  <compound>
CC(C)(C)N1C(=O)[C@H]2[C@H]3[C@H](O)[C@H](O)CC(=O)[C@H]3CC[C@H]2C1=O

>  <test_target>
Lefty1

>  <composite z-score>
0.407

$$$$
>  <compound>
C=CC[C@@H]1C=C[C@H](ON=C(C)CCC(=O)OC[C@H]2O[C@H](c3ccccc3)C=C[C@@H]2Oc2ccc(OC)cc2)[C@@H](CO)O1

>  <test_target>
Lefty1

>  <composite z-score>
0.443

$$$$
>  <compound>
CCOC(=O)[C@H](CC(C)C)NC(=O)CCC1CC(OC(=O)NCCc2ccc(F)cc2)CC2(CCCC(COC(=O)NCC3CCCCC3)O2)O1 (some centres not stated)

>  <test_target>
Lefty1

>  <composite z-score>
0.803

$$$$
>  <compound>
CC(=O)O[C@H]1C2=CO[C@H](C)[C@H]3[C@H]4C5=C([C@H](O)[C@H]6O[C@H]6C5=O)[C@H](OC4C)[C@@]23C(=O)[C@@H]2O[C@@H]21 (some centres not stated)

>  <test_target>
Lefty1

>  <composite z-score>
0.0873

$$$$
>  <compound>
CCOC(=O)[C@H](Cc1ccccc1)NC(=O)CCC1CC(OC(=O)NCc2ccc3c(c2)OCO3)CC2(CCCC(COC(=O)NCCC(C)C)O2)O1 (some centres not stated)

>  <test_target>
Lefty1

>  <composite z-score>
0.722

$$$$
>  <compound>
COC(=O)CC=C[C@@H](C)[C@@H](C=NOCC[C@@H]1C=C[C@H](OC(C)=O)[C@@H](COC(C)=O)O1)NS(=O)(=O)c1ccc(C)cc1

>  <test_target>
Lefty1

>  <composite z-score>
0.36

$$$$
>  <compound>
CCOC(=O)[C@H](CC(C)C)NC(=O)CCC1CC(OC(=O)NCc2cccc3ccccc23)CC2(CCCC(COC(=O)NCCC(C)C)O2)O1 (some centres not stated)

>  <test_target>
Lefty1

>  <composite z-score>
0.606

$$$$

* * *

Experiment: small-molecule binders of probe aNOTCH3, primary screen, biochemical, small-molecule microarray, 635/667 nm fluorescence (AID 1120);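 further: probe is a biotin-tagged antibody raised against NOTCH3 rather than NOTCH3 protein; score merges spot fluorescence near 667 nm with spot signal to noise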
Conditions: higher = more signal
Listing of recorded composite z-score by entry.

>  <molecule>
CCOC(=O)[C@H](Cc1ccccc1)NC(=O)CCC1CC(OC(=O)NCc2cccc3ccccc23)CC2(CCCC(COC(=O)NCc3ccccc3)O2)O1 (some centres undefined)

>  <composite z-score>
-0.0204

$$$$
>  <molecule>
C[C@@H]1NC(=O)[C@@H](C)COC(=O)[C@H](C)NC(=O)[C@@H](C)COC1=O

>  <composite z-score>
-0.0339

$$$$
>  <molecule>
C[C@@H](c1ccccc1)N1C(=O)[C@H]2[C@H]3[C@H](O)[C@H](O)CC(=NO[C@@H]4O[C@H](CO)[C@@H](O)[C@H](O)[C@H]4O)[C@@H]3CC[C@H]2C1=O

>  <composite z-score>
0.0996

$$$$
>  <molecule>
COC(=O)[C@H](C)NC(=O)CCC1CC(OC(=O)NCc2ccc3c(c2)OCO3)CC2(CCCC(COC(=O)NCC3CCCCC3)O2)O1 (some centres undefined)

>  <composite z-score>
-0.0111

$$$$

* * *

Target: NADPH oxidase 5 (Homo sapiens)
Experiment: NOX5-dependent H2O2 signal modulators, primary screen, NOX inhibitor project, cell-based, HEK293-NOX5, Amplex Red fluorescence (AID 1161)
Settings: HEK293-NOX5, ionomycin, 45 min, higher = more signal
Listing of recorded z-score by entry.
recorded_metric: z-score

>  <compound>
COC(=O)[C@H](C)NC(=O)CCC1CC(OC(=O)NCc2ccc3c(c2)OCO3)CC2(CCCC(COC(=O)NCCc3ccccc3OC)O2)O1 (some centres not stated)

>  <recorded_metric>
z-score

>  <recorded_value>
0.339

$$$$
>  <compound>
COC(=O)[C@H](C)NC(=O)CCC1CC(OC(=O)NCc2ccc3c(c2)OCO3)CC2(CCCC(COC(=O)NCC3CCCCC3)O2)O1 (some centres not stated)

>  <recorded_metric>
z-score

>  <recorded_value>
-0.651

$$$$
>  <compound>
CCCNC(=O)OC[C@H]1O[C@H](CCON=C(C)CCC(=O)OC[C@H]2O[C@H](c3ccccc3)C=C[C@@H]2Oc2ccc(OC)cc2)C=C[C@@H]1Oc1ccc(OC)cc1

>  <recorded_metric>
z-score

>  <recorded_value>
-0.295

$$$$
>  <compound>
O=c1n(-c2ccccc2)c(=O)n2n1CC[C@@H]1C(=NOCc3ccccc3)[C@H]3O[C@H]3[C@@H](O)[C@@H]12

>  <recorded_metric>
z-score

>  <recorded_value>
0.183

$$$$
>  <compound>
COC(=O)CC=C[C@@H](C)[C@@H](C=NOC[C@H]1O[C@H](c2ccccc2)C=C[C@@H]1Oc1ccc(OC)cc1)OC

>  <recorded_metric>
z-score

>  <recorded_value>
-0.549

$$$$
>  <compound>
O=C1[C@H]2[C@H]3[C@H](O)[C@H](O)CC(=NOC[C@@H](O)COCc4ccco4)[C@@H]3CC[C@H]2C(=O)N1C[C@@H]1CCCO1

>  <recorded_metric>
z-score

>  <recorded_value>
0.382

$$$$
>  <compound>
COc1ccc(O[C@H]2C=C[C@@H](c3ccccc3)O[C@@H]2COC(=O)CCC(C)=NOC(C)CN2CCCc3nc(C)c(C)cc32)cc1 (some centres not stated)

>  <recorded_metric>
z-score

>  <recorded_value>
-1.35

$$$$

* * *

Assay: E. coli DRC41 culture turbidity changes, primary screen, E. coli filamentation inducer project, strain DRC41, OD650, 48 h (AID 1152);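 further: E. coli MC1000 strain DRC41 lacking acrAB efflux pump and sulA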
Details: E. coli DRC41 (acrAB sulA), higher = more signal, called active from +8 up or from −8 down
Assign class by z-score: not lower than 0.5 means yes (1); lower than 0.5 means no (0).

>  <compound>
COC(=O)CC=C[C@H](C)[C@@H](OCc1cccc(Br)c1)[C@@H](C)[C@H](OC)C1CCCCC1

>  <answer_label>
no (0)

$$$$
>  <compound>
CCOC(=O)[C@H](CC(C)C)NC(=O)CCC1CC(OC(=O)NCc2cccc3ccccc23)CC2(CCCC(COC(=O)NCCc3ccc(Cl)cc3)O2)O1 (stereo not given in full)

>  <answer_label>
yes (1)

$$$$
>  <compound>
CCOC(=O)[C@H](Cc1ccccc1)NC(=O)CCC1CC(OC(=O)NCc2cccc3ccccc23)CC2(CCCC(COC(=O)NCc3cccc(C(F)(F)F)c3)O2)O1 (stereo not given in full)

>  <answer_label>
no (0)

$$$$
>  <compound>
CCOC(=O)[C@H](Cc1ccccc1)NC(=O)CCC1CC(OC(=O)NCCc2ccc(F)cc2)CC2(CCCC(COC(=O)NCCc3ccc(Cl)cc3)O2)O1 (stereo not given in full)

>  <answer_label>
no (0)

$$$$
>  <compound>
CCCCC#C[C@@H]1C=C[C@H](OC(C)=O)[C@@H](COC(C)=O)O1

>  <answer_label>
no (0)

$$$$
>  <compound>
O=C1C=C[C@@H](O)[C@@H]2[C@@H]3C(=O)N(C[C@@H]4CCCO4)C(=O)[C@@H]3CC[C@@H]12

>  <answer_label>
no (0)

$$$$
>  <compound>
COc1cccc([C@@H]2Oc3ccc(OC)cc3C(=O)[C@H]2O)c1

>  <answer_label>
no (0)

$$$$
>  <compound>
C[C@@H](c1ccccc1)N1C(=O)[C@H]2[C@H]3[C@H](O)[C@H](O)CC(=NO[C@@H]4O[C@H](CO)[C@@H](O)[C@H](O)[C@H]4O)[C@@H]3CC[C@H]2C1=O

>  <answer_label>
no (0)

$$$$
>  <compound>
O=C1[C@H]2[C@H]3[C@H](O)[C@H](O)CC(=NOCc4ccccc4)[C@H]3CC[C@H]2C(=O)N1Cc1ccc2c(c1)OCO2

>  <answer_label>
no (0)

$$$$
>  <compound>
CCOC(=O)CCN1C(=O)[C@H]2[C@H]3[C@H](O)[C@H](O)CC(=NOCC(C)C)[C@H]3CC[C@H]2C1=O

>  <answer_label>
yes (1)

$$$$
>  <compound>
CCC1=NOC(CCC2CC(OC(=O)NCc3cccc4c3OCO4)CC3(CCCC(COC(=O)NCCc4ccccc4OC)O3)O2)C1 (stereo not given)

>  <answer_label>
yes (1)

$$$$
>  <compound>
CCOC(=O)[C@H](CC(C)C)NC(=O)CCC1CC(OC(=O)NCCc2ccc(F)cc2)CC2(CCCC(COC(=O)NCC3CCCCC3)O2)O1 (stereo not given in full)

>  <answer_label>
no (0)

$$$$
>  <compound>
COC(=O)CC=C[C@@H](C)[C@@H](C=NOC[C@@H](O)[C@H]1O[C@@H]2OC(C)(C)O[C@@H]2[C@H]1O)NS(=O)(=O)c1ccc(C)cc1

>  <answer_label>
no (0)

$$$$
>  <compound>
CCOC(=O)[C@H](CC(C)C)NC(=O)CCC1CC(OC(=O)NCc2cccc3ccccc23)CC2(CCCC(COC(=O)NCCOC)O2)O1 (stereo not given in full)

>  <answer_label>
yes (1)

$$$$
